molecular target: human recombinant PDE-4D2 (Homo sapiens); assay: PDE4-D2 assay (Compounds of Formula I), SPA; format: biochemical; settings: 4-parameter logistical fit, two technical replicates
Sequence (Q08499 303-809): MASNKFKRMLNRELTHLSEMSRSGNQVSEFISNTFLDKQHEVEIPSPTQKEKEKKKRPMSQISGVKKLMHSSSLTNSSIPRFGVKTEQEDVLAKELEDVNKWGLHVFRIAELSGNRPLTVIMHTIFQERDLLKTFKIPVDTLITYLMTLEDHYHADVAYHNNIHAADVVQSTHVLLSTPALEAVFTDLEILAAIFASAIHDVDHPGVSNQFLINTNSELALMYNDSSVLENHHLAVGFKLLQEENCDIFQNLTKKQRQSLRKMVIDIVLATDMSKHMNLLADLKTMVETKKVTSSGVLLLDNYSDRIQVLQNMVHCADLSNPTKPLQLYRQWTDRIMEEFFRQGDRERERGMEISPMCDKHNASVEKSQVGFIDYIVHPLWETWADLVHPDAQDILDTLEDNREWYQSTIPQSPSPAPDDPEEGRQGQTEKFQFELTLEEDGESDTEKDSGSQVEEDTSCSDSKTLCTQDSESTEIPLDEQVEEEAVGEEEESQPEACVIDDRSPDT
This listing pairs compounds with measured IC50.

Observe how each entry below is paired with its result.
CN1CC[C@]2(c3ccc(OCC4CC4)c(OC4CCCC4)c3)CCC(=O)C[C@H]12 | > 30 µM
CCOc1cc([C@@]23CCC(=O)C[C@@H]2N(C)CC3)ccc1OCC1CC1 | > 30 µM
CCOc1ccc(C23C=CC(=O)CC2N(C)CC3)cc1OCC (stereo not drawn) | < 3 µM
COc1ccc([C@@]23CCC(=O)C=C2N(C)CC3)cc1OC1CCCC1 | < 3 µM
CSc1cc([C@@]23CCC(=O)C[C@@H]2N(C)CC3)ccc1OC(C)C | > 30 µM
COc1ccc([C@]23CCC(=O)C[C@H]2N(C)CC3)cc1OC | < 3 µM

API: value(readout=IC50, system=human recombinant PDE-4D2 (Homo sapiens)) for record "C=CCOc1cc([C@@]23CCC(=O)C=C2N(C)CC3)ccc1OC"
> 3 µM

Tell me reported IC50 for "C=CCOc1cc([C@@]23CCC(=O)C[C@@H]2N(C)CC3)ccc1OCC1CC1" , tested with human recombinant PDE-4D2 (Homo sapiens).
> 30 µM

Can you look up IC50 on human recombinant PDE-4D2 (Homo sapiens) for "COc1ccc([C@@]23CCC(=O)C[C@@H]2N(C)CC3)cc1OCC(F)(F)F" ?
11.3 µM

====

target: human serotonin transporter (Homo sapiens, UniProt P31645); assay: cell-based;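 note: Read-out: uptake of tritium-labelled serotonin, measured by scintillation counting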
Sequence (P31645 whole entry): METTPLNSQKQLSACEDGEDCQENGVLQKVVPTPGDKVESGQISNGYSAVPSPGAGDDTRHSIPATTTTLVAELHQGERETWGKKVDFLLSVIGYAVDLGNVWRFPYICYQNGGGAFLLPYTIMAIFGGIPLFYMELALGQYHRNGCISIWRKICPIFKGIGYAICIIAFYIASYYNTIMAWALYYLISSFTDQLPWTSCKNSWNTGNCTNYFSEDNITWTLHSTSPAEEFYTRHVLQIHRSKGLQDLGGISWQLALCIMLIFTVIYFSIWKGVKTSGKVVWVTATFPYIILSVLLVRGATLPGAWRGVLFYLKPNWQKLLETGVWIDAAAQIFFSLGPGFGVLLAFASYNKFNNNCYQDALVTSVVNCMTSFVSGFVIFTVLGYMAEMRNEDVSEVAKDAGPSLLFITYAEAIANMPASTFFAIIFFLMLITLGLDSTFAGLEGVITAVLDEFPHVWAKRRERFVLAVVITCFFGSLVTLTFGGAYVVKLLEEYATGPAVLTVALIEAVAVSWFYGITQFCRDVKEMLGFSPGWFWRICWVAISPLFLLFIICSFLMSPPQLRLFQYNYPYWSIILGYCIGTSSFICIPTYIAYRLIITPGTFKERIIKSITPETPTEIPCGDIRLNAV
pIC50: −log10 of the molar value.
value.type: pIC50

// below: answered compounds
CCOc1ccc([C@@]23CCC(=O)C[C@@H]2N(C)CC3)cc1OC | > 7.00
COc1ccc([C@@]23CCC(=O)C[C@@H]2N(C)CC3)cc1OCC(F)(F)F | > 7.00
CCOc1ccc(C23C=CC(=O)CC2N(C)CC3)cc1OCC (stereo not drawn) | < 5.52
COc1ccc([C@]23CCC(=O)C=C2N(C)CC3)cc1OC | < 5.52
COc1ccc([C@@]23CCC(=O)C=C2N(C)CC3)cc1OC | > 5.52

Any idea what pIC50 came out for "C#CCOc1cc([C@@]23CCC(=O)C[C@@H]2N(C)CC3)ccc1OC" on human serotonin transporter (Homo sapiens, UniProt P31645)?
> 5.52

Item "COc1ccc([C@@]23CCC(=O)C=C2N(C)CC3)cc1OC1CCCC1" with human serotonin transporter (Homo sapiens, UniProt P31645) - pIC50?
< 5.52

Request - read-out pIC50 | tested on human serotonin transporter (Homo sapiens, UniProt P31645) | compound "C=CCOc1cc([C@@]23CCC(=O)C=C2N(C)CC3)ccc1OC"
< 5.52

What pIC50 appears in the records for this compound with human serotonin transporter (Homo sapiens, UniProt P31645)? "COc1ccc([C@@]23CCC(=O)C[C@@H]2N(C)CC3)cc1OCc1ccccc1"
< 5.00

====

assay: Hepatocyte stability study; assay type: in vitro ADME; conditions: human hepatocytes, 1 μM, 37° C.; read-out: Qualified t1/2
value.type: half-life at 1 μM (min)
# value in min; strip the unit string

Item "[2H]C([2H])([2H])Oc1cc([C@@]23CCC(=O)C[C@@H]2N(C)CC3)ccc1OC" has what recorded half-life at 1 μM?
65.8
